Target: Dual specificity protein phosphatase 1 (Homo sapiens) (UniProt P28562)
Sequence (P28562 whole entry, looked up): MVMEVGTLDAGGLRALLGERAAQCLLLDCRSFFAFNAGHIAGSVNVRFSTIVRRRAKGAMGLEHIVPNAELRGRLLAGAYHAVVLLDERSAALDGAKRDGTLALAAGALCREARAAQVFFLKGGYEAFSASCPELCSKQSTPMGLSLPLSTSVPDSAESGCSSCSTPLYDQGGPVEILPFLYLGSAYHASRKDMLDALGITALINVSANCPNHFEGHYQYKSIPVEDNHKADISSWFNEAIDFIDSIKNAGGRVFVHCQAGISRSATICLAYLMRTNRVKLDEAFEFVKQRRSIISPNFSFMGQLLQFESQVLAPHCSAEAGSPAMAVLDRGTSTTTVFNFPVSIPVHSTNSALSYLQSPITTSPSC
Test: concentration-response of DUSP1 blockers – biochemical, in vitro, confirmation, dose response (AID 551)
Conditions: recombinant MKP-1 phosphatase, fluorescence substrate
Activity calls are given as the source filed them. How the calls were made is not given here.
Outcomes: active, inactive

>>> class_label("Cc1cc(C)n2c(SCC(=O)N3CCN(S(=O)(=O)c4ccc(Cl)cc4)CC3)nnc2n1")
"active"
>>> class_label("CCOC(=O)c1ccc(NC2c3ncccc3C(=O)N2Cc2ccc(F)cc2)cc1 (centres undefined)")
"inactive"
>>> class_label("O=C1c2ccccc2-c2onc3ccc(NCCCn4ccnc4)c1c23")
"active"
>>> class_label("O=C1C(C2=C(O)c3ccccc3C2=O)=Nc2ccccc21")
"inactive"
